Test system: Staphylococcus aureus
Experimental Details: Antibacterial activity against gentamicin-resistant Staphylococcus aureus ATCC 33592 after 24 hrs by spectrophotometric analysis
Assay type: functional, organism-based
Measurement Setup: Staphylococcus aureus, ATCC 33592, 24 h; read-out: IC50
Each record here notes measured IC50.

{"columns": ["Molecule", "Endpoint Unit", "Limit Sign", "IC50"],
 "data": [
  ["O=C(O)c1cn(Cc2ccc(C(F)(F)F)cc2)c2cc(N3CCN(C(c4ccc(F)cc4)c4nnnn4C4CCCCC4)CC3)c(F)cc2c1=O (stereo not drawn)", "µg/mL", ">", 50],
  ["CC(C)(C)n1nnnc1C(c1cccc2ccccc12)N1CCN(c2cc3c(cc2F)c(=O)c(C(=O)O)cn3Cc2ccc(C(F)(F)F)cc2)CC1 (stereo not drawn)", "µg/mL", ">", 50],
  ["CCn1cc(C(=O)O)c(=O)c2cc(F)c(N3CCN(C(c4ccncc4)c4nnnn4C(C)(C)C)CC3)cc21 (stereo not drawn)", "µg/mL", "=", 0.35],
  ["COc1ccc(C(c2nnnn2C2CCCCC2)N2CCN(c3cc4c(cc3F)c(=O)c(C(=O)O)cn4Cc3ccc(C(F)(F)F)cc3)CC2)c2ccccc12 (stereo not drawn)", "µg/mL", ">", 50],
  ["CC(C)(C)n1nnnc1C(c1ccncc1)N1CCN(c2cc3c(cc2F)c(=O)c(C(=O)O)cn3Cc2ccc(C(F)(F)F)cc2)CC1 (stereo not drawn)", "µg/mL", "=", 50],
  ["CCn1cc(C(=O)O)c(=O)c2cc(F)c(N3CCN(C(c4ccccc4)c4nnnn4C(C)(C)C)CC3)cc21 (stereo not drawn)", "µg/mL", "=", 0.34],
  ["CCn1cc(C(=O)O)c(=O)c2cc(F)c(N3CCN(C(c4cccc5ccccc45)c4nnnn4C(C)(C)C)CC3)cc21 (stereo not drawn)", "µg/mL", "=", 0.2],
  ["CC(C)c1ccc(C(c2nnnn2C2CCCCC2)N2CCN(c3cc4c(cc3F)c(=O)c(C(=O)O)cn4Cc3ccc(C(F)(F)F)cc3)CC2)cc1 (stereo not drawn)", "µg/mL", "=", 50]
]}

The measured values listed here are drawn from ChEMBL document CHEMBL3232987.
